Where do these numbers come from? They come from patent US20050075375A1.

Test system: monocistronic NK5.1 HCV replicon in Huh7 cells
TEST DESCRIPTION: HCV replicon assay, monocistronic replicon cell line
Assay type: cell-based, hepatitis C virus
CONDITION DESCRIPTION: Hepatitis C virus, Huh-7; monocistronic NK5.1 HCV replicon in Huh7 cells; median value; read-out: Mono EC50 Median
Record form. Attribute: EC50. Fill in for each entry.

Prompt: Give recorded EC50. COc1ccccc1-c1nnc(-c2ccccc2[N+](=O)[O-])o1 [Compound 328]
Completion: > 32 µM

Prompt: Report measured EC50; entry is Cc1ccccc1-c1nnc(-c2cccs2)o1 [Compound 317]
Completion: > 32 µM

Prompt: Give EC50 for the following compound: Oc1ccc(F)cc1-c1nc(-c2ccc(C(F)(F)F)cn2)no1 [Compound 219]
Completion: > 32 µM

* * *

System: monocistronic NK5.1 HCV replicon in Huh7 cells
TEST DESCRIPTION: HCV replicon assay, monocistronic replicon cell line
Assay type: cell-based, hepatitis C virus
CONDITION DESCRIPTION: Hepatitis C virus, Huh-7, 72 h; table T3 (compounds 471-640); monocistronic replicon in Huh7 cells, 3 days incubation, HCV RNA/GAPDH RNA by TaqMan RT-PCR; read-out: Mono EC50 Median
METRIC: EC50

Prompt: Report measured EC50; entry is COc1ccc(-c2nc(-c3ncccc3C(F)(F)F)n[nH]2)c(O)c1
Completion: > 19 µM

Prompt: For the compound COc1ccc(O)c(-c2nc(-c3ncccc3Br)n[nH]2)c1 , give its measured EC50 value.
Completion: > 32 µM

Prompt: Report measured EC50; entry is FC(F)(F)c1ccncc1-c1n[nH]c(-c2c(Cl)cccc2Cl)n1
Completion: > 32 µM

Prompt: Answer with the recorded EC50 for the compound listed here: FC(F)(F)c1cccnc1-c1n[nH]c(-c2c(Cl)cccc2Cl)n1
Completion: > 19 µM

Prompt: Kindly indicate its recorded EC50. Item: CC(C)(C)c1ccc(O)c(-c2nc(-c3ccc(C(F)(F)F)cn3)n[nH]2)c1
Completion: > 19 µM

Prompt: Give me measured EC50, please, for this compound: Oc1ccc2ccccc2c1-c1nc(-c2ncccc2C(F)(F)F)n[nH]1
Completion: > 19 µM

Prompt: Could you please provide reported EC50 for O=[N+]([O-])c1cccc(-c2nc(-c3ncccc3Br)n[nH]2)c1 ? Thanks!
Completion: > 32 µM

Prompt: Find the measured EC50 of c1ccc(-c2ncn(-c3ccccn3)n2)cc1 and report it.
Completion: > 32 µM

Prompt: Note down EC50 recorded for COc1cccc(-c2nc(-c3ccc(C(F)(F)F)cn3)n[nH]2)c1
Completion: > 19 µM

Prompt: Return value of EC50 for input Cc1ccc(O)c(-c2nc(-c3ncccc3C(F)(F)F)n[nH]2)c1 , no commentary.
Completion: > 19 µM

Prompt: Identify the reported EC50 for the following entry. Oc1cc(OCc2ccccc2)ccc1-c1nc(-c2ccc(C(F)(F)F)cn2)n[nH]1
Completion: > 19 µM

Prompt: Indicate its recorded EC50; the compound in question is CCOc1cccc(-c2nc(-c3ccc(C(F)(F)F)cn3)n[nH]2)c1O
Completion: > 19 µM

Prompt: State, in one line, measured EC50 of COc1ccc(F)c(-c2nc(-c3ccc(C(F)(F)F)cn3)n[nH]2)c1
Completion: > 19 µM

Prompt: Tell me measured EC50 for Oc1ccc(F)cc1-c1nc(-c2ccc(C(F)(F)F)cn2)n[nH]1 please.
Completion: > 19 µM

Prompt: Report measured EC50; entry is COc1cccc(-c2nc(-c3ccccn3)nn2C)c1O
Completion: > 32 µM

Prompt: Note EC50 for the compound shown: FC(F)(F)c1ccncc1-c1n[nH]c(-c2ccccc2Cl)n1
Completion: > 32 µM

Prompt: Assign EC50 to the following record: FC(F)(F)c1cccnc1-c1n[nH]c(-c2cccc3ccccc23)n1
Completion: > 19 µM
